Documented fold change of affinity across a set of binders
# Study system: T1, Human CD3eg linker (human)
# T1 construct: Single chain: epsilon and gamma subunits of human CD3 joined by a 29-mer linker, Flag-tag at the C-terminus; also called recombinant human CD3
# T1 chain: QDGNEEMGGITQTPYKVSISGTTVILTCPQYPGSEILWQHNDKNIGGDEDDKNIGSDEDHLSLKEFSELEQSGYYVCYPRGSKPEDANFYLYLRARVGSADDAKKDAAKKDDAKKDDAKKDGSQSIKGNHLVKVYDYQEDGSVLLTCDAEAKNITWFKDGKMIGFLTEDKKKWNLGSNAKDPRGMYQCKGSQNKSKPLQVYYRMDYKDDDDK
# Method notes: Biacore SPR, vs template H183/L072
Report the value in fold with no unit label.

Binder	Reading unit	fold change of affinity
H183/L072 VH S62P (antibody, name in Kabat numbering, V domains shown) VH: QVQLVESGGGLVQPGRSLRLSCAASGFTFSNAWMHWVRQAPGKGLEWVAQIKDKGNAYAAYYAPPVKGRFTISRDDSKNSIYLQMNSLKTEDTAVYYCHYVHYASASTVLPAFGVDAWGQGTTVTVSS VL: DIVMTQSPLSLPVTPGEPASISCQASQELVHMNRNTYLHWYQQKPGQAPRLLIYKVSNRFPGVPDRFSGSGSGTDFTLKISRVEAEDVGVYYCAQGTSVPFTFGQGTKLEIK	fold	1.3

Q: Query (binder): H183/L072 VH A32E (antibody, name in Kabat numbering, V domains shown) VH: QVQLVESGGGLVQPGRSLRLSCAASGFTFSNEWMHWVRQAPGKGLEWVAQIKDKGNAYAAYYAPSVKGRFTISRDDSKNSIYLQMNSLKTEDTAVYYCHYVHYASASTVLPAFGVDAWGQGTTVTVSS VL: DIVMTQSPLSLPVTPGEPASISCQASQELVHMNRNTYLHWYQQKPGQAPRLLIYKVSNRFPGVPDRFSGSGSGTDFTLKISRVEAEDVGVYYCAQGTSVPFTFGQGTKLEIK ; field requested: fold change of affinity
Result: 0.1
